- System Under Test: Tyrosine-protein kinase Lck (Homo sapiens)
- Test Summary: Inhibition of human lymphocyte protein tyrosine kinase Lck at 30 uM
Readout: inhibition (%)

{"Smiles Input": "Fc1ccc(Cn2cnc3c(Sc4ccc(F)cc4)ncnc32)cc1", "System Under Test": "Tyrosine-protein kinase Lck (Homo sapiens)", "Observed Value": 16}

P: Fc1ccc(Cc2[nH]cnc3ncnc2-3)cc1
Q: CSc1ccc(-c2nc3c(Sc4ccc(F)cc4)ncnc3n2C)cc1
R: Nc1ncnc2c1ncn2Cc1ccc(F)cc1
S: c1ccc(Sc2ncnc3[nH]cnc23)cc1
Order the 4 molecules from highest to lowest inhibition. Your answer should be the labels, listed in the requested order.
R, S, Q, P

I: c1ccc(Cn2cnc3c(Sc4ccccc4)ncnc32)cc1
II: Nc1[nH]cnc2ncnc1-2
Form field 'greater inhibition' accepts I or II ; which applies? The response must carry the label of the picked entry.
II
(II: 19%, I: 0%)

P: c1ccc(C[n+]2c[nH]c3ncncc32)cc1
Q: Cn1cnc2c(-c3ccccc3)ncnc21
R: c1ccc(Sc2[nH]cnc3nccc2-3)cc1
S: Clc1ncnc2ncn(Cc3ccccc3)c12
Write the entries in order, lowest recorded inhibition first. List the labels according to the requested ordering.
S, P, Q, R

A: Cn1cnc2c(-c3ccc(F)cc3)ncnc21
B: Cn1c(Br)nc2c(Sc3ccccc3)ncnc21
// max by inhibition over [ A , B ] # respond with the chosen item's label
B
(B: 23%, A: 5%)
